Attribution: paper PMC12167799

Target: T1, SWSAP1 (hSWS1-SWSAP1, WT);hSWS1 (Homo sapiens;Homo sapiens, UniProt Q6NVH7;Q19AV6 22-250;1-140, |)
T1 sequence 1: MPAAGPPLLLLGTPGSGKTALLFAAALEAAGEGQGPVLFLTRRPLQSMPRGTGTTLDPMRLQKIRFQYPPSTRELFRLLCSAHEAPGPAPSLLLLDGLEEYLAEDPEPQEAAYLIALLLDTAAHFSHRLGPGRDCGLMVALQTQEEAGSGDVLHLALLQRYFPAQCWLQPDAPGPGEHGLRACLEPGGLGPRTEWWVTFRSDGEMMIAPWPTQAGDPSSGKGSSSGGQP
T1 sequence 2: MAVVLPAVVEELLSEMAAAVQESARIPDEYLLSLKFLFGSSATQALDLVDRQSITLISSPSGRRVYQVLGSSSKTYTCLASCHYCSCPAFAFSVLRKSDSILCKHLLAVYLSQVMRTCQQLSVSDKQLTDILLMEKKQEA
Assay: fluorescence polarization; 2 mM ADP; FPA: 5 nM 6-FAM DNA, 37 C, 2 mM nucleotide where stated (buffer not given in material); EMSA: 0.05 uM 6-FAM DNA, 5%/15% native PAGE; RAD51 filaments: 2 mM ATP
Details: protein: recombinant;recombinant; tags: N-terminal 6xHis-TEV, cleaved;none; copies: 1;1; label: 3' 6-FAM on strand 1; fork 1:2, 19 bp duplex, 20 nt arms
parameter_measured: Kd

binder | parameter_measured | experimental_value
Fork (dsDNA) DNA 1: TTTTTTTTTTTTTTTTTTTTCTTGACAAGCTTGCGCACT DNA 2: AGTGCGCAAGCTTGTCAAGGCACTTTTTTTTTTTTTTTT | Kd | 25.6 µM
